- Tested on: U-2932
- assay-protocol: growth inhibition by drug plus 177Lu-lilotomab satetraxetan (1 - RLU/untreated control) (fraction); higher = stronger inhibition
- condition-info: 1000 nM; time (day): 6; 177Lu-lilotomab satetraxetan 1 ug/ml
measurement-kind: growth inhibition by drug plus 177Lu-lilotomab satetraxetan

molecule="N.N.[Cl][Pt][Cl] [Cisplatin]" reported_value=0.206
molecule="CC(=O)Nc1ccc(OC[C@](C)(O)C(=O)Nc2ccc([N+](=O)[O-])c(C(F)(F)F)c2)cc1 [Andarine (GTX-007)]" reported_value=0.127
molecule="Cc1cc2c(C(C)C)c(O)c(O)c(C=O)c2c(O)c1-c1c(C)cc2c(C(C)C)c(O)c(O)c(C=O)c2c1O [Gossypol]" reported_value=0.0745
molecule="O=P1(N(CCCl)CCCl)NCCCO1 (centres undefined) [Cyclophosphamide monohydrate]" reported_value=0.0795
molecule="CCC1(c2ccc(N)cc2)CCC(=O)NC1=O (centres undefined) [Aminoglutethimide (Cytadren)]" reported_value=0.126
molecule="C[C@]12CCC(=O)C(O)=C1CC[C@@H]1[C@@H]2CC[C@]2(C)C(=O)CC[C@@H]12 [Formestane]" reported_value=0.18
molecule="O=C(O)c1nn(Cc2ccc(Cl)cc2Cl)c2ccccc12 [Lonidamine]" reported_value=0.244
molecule="CC(C)[C@]12O[C@H]1[C@@H]1O[C@]13[C@]1(O[C@H]1C[C@H]1C4=C(CC[C@@]13C)C(=O)OC4)[C@@H]2O [Triptolide]" reported_value=0.986
molecule=CN(C)CCN(C)CCc1ccc(Cl)c(Cl)c1 reported_value=-0.0418

---

- System: RIVA
- assay-protocol: growth inhibition by drug plus 177Lu-lilotomab satetraxetan (1 - RLU/untreated control) (fraction); higher = stronger inhibition
- condition-info: 100 nM; time (day): 5; 177Lu-lilotomab satetraxetan 0.5 ug/ml
Catalogue of growth inhibition by drug plus 177Lu-lilotomab satetraxetan values
measurement-kind: growth inhibition by drug plus 177Lu-lilotomab satetraxetan

compound=O=C(O)c1nn(Cc2ccc(Cl)cc2Cl)c2ccccc12 assayed_target=RIVA reported_value=0.459
compound=Cc1cc2c(C(C)C)c(O)c(O)c(C=O)c2c(O)c1-c1c(C)cc2c(C(C)C)c(O)c(O)c(C=O)c2c1O assayed_target=RIVA reported_value=0.38
compound=C[C@]12CCC(=O)C(O)=C1CC[C@@H]1[C@@H]2CC[C@]2(C)C(=O)CC[C@@H]12 assayed_target=RIVA reported_value=0.53
compound=CC(=O)Nc1ccc(OC[C@](C)(O)C(=O)Nc2ccc([N+](=O)[O-])c(C(F)(F)F)c2)cc1 assayed_target=RIVA reported_value=0.511
compound="CCC1(c2ccc(N)cc2)CCC(=O)NC1=O (centres undefined) [Aminoglutethimide (Cytadren)]" assayed_target=RIVA reported_value=0.379
compound=CC1=C2C[C@H]3[C@@H](CC=C4C[C@@H](O)CC[C@@]43C)[C@@H]2CC[C@]12O[C@@H]1C[C@H](C)CN[C@H]1[C@H]2C assayed_target=RIVA reported_value=0.559
compound="CC(C)[C@]12O[C@H]1[C@@H]1O[C@]13[C@]1(O[C@H]1C[C@H]1C4=C(CC[C@@]13C)C(=O)OC4)[C@@H]2O [Triptolide]" assayed_target=RIVA reported_value=0.979
compound="CC(O)(CS(=O)(=O)c1ccc(F)cc1)C(=O)Nc1ccc(C#N)c(C(F)(F)F)c1 (centres undefined) [Bicalutamide (Casodex)]" assayed_target=RIVA reported_value=0.458
compound="N.N.[Cl][Pt][Cl] [Cisplatin]" assayed_target=RIVA reported_value=0.544

---

- Test system: RIVA
- assay-protocol: growth inhibition by drug plus 177Lu-lilotomab satetraxetan (1 - RLU/untreated control) (fraction); higher = stronger inhibition
- condition-info: 10 nM; time (day): 4; 177Lu-lilotomab satetraxetan 0.5 ug/ml
Catalogue of growth inhibition by drug plus 177Lu-lilotomab satetraxetan values
measurement-kind: growth inhibition by drug plus 177Lu-lilotomab satetraxetan

compound=O=C(O)c1nn(Cc2ccc(Cl)cc2Cl)c2ccccc12 reported_value=0.624
compound=CC1=C2C[C@H]3[C@@H](CC=C4C[C@@H](O)CC[C@@]43C)[C@@H]2CC[C@]12O[C@@H]1C[C@H](C)CN[C@H]1[C@H]2C reported_value=0.397
compound=CC(=O)Nc1ccc(OC[C@](C)(O)C(=O)Nc2ccc([N+](=O)[O-])c(C(F)(F)F)c2)cc1 reported_value=0.603
compound="CC(O)(CS(=O)(=O)c1ccc(F)cc1)C(=O)Nc1ccc(C#N)c(C(F)(F)F)c1 (centres undefined) [Bicalutamide (Casodex)]" reported_value=0.506

---

- Tested on: RIVA
- assay-protocol: growth inhibition by drug plus 177Lu-lilotomab satetraxetan (1 - RLU/untreated control) (fraction); higher = stronger inhibition
- condition-info: 10 nM; time (day): 6; 177Lu-lilotomab satetraxetan 0.5 ug/ml
Catalogue of growth inhibition by drug plus 177Lu-lilotomab satetraxetan values
measurement-kind: growth inhibition by drug plus 177Lu-lilotomab satetraxetan

compound=Cc1ccccc1-n1c(Cn2cnc3c(N)ncnc32)nc2cccc(C)c2c1=O assayed_target=RIVA reported_value=0.556
compound="CCC1(c2ccc(N)cc2)CCC(=O)NC1=O (stereo not drawn) [Aminoglutethimide (Cytadren)]" assayed_target=RIVA reported_value=0.547
compound=Cn1cc(C2=C(c3cn(C4CCN(Cc5ccccn5)CC4)c4ccccc34)C(=O)NC2=O)c2ccccc21 assayed_target=RIVA reported_value=0.564
compound="Cc1cc2c(C(C)C)c(O)c(O)c(C=O)c2c(O)c1-c1c(C)cc2c(C(C)C)c(O)c(O)c(C=O)c2c1O [Gossypol]" assayed_target=RIVA reported_value=0.51
compound="N.N.[Cl][Pt][Cl] [Cisplatin]" assayed_target=RIVA reported_value=0.599
compound="CC[C@@H](C(=O)[C@@H](C)[C@@H](O)[C@H](C)[C@@H]1O[C@@H]([C@@H](CC)C(=O)O)CC[C@@H]1C)[C@H]1O[C@]2(C=C[C@@H](O)[C@]3(CC[C@@](C)([C@H]4CC[C@](O)(CC)[C@H](C)O4)O3)O2)[C@H](C)C[C@@H]1C [Salinomycin (Procoxacin)]" assayed_target=RIVA reported_value=0.6
compound="C[C@]12CCC(=O)C(O)=C1CC[C@@H]1[C@@H]2CC[C@]2(C)C(=O)CC[C@@H]12 [Formestane]" assayed_target=RIVA reported_value=0.549
compound="CC(=O)Nc1ccc(OC[C@](C)(O)C(=O)Nc2ccc([N+](=O)[O-])c(C(F)(F)F)c2)cc1 [Andarine (GTX-007)]" assayed_target=RIVA reported_value=0.608

---

Catalogue of growth inhibition by drug alone values
- Tested on: U-2932
- assay-protocol: growth inhibition by drug alone (1 - RLU/untreated control) (fraction); higher = stronger inhibition
- condition-info: 10 nM; time (day): 6; 177Lu-lilotomab satetraxetan 0 ug/ml
measurement-kind: growth inhibition by drug alone

compound="CC(C)[C@]12O[C@H]1[C@@H]1O[C@]13[C@]1(O[C@H]1C[C@H]1C4=C(CC[C@@]13C)C(=O)OC4)[C@@H]2O [Triptolide]" measurement_kind="growth inhibition by drug alone" reported_value=0.677
compound="CC1=C2C[C@H]3[C@@H](CC=C4C[C@@H](O)CC[C@@]43C)[C@@H]2CC[C@]12O[C@@H]1C[C@H](C)CN[C@H]1[C@H]2C [Cyclopamine]" measurement_kind="growth inhibition by drug alone" reported_value=-0.0904
compound="CC(=O)Nc1ccc(OC[C@](C)(O)C(=O)Nc2ccc([N+](=O)[O-])c(C(F)(F)F)c2)cc1 [Andarine (GTX-007)]" measurement_kind="growth inhibition by drug alone" reported_value=-0.0688

---

Catalogue of growth inhibition by drug alone values
- Tested on: U-2932
- assay-protocol: growth inhibition by drug alone (1 - RLU/untreated control) (fraction); higher = stronger inhibition
- condition-info: 1000 nM; time (day): 4; 177Lu-lilotomab satetraxetan 0 ug/ml
measurement-kind: growth inhibition by drug alone

compound="C[C@]12CCC(=O)C(O)=C1CC[C@@H]1[C@@H]2CC[C@]2(C)C(=O)CC[C@@H]12 [Formestane]" measurement_kind="growth inhibition by drug alone" reported_value=-0.0526
compound="CC(O)(CS(=O)(=O)c1ccc(F)cc1)C(=O)Nc1ccc(C#N)c(C(F)(F)F)c1 (stereo not drawn) [Bicalutamide (Casodex)]" measurement_kind="growth inhibition by drug alone" reported_value=-0.00664
compound=Cn1cc(C2=C(c3cn(C4CCN(Cc5ccccn5)CC4)c4ccccc34)C(=O)NC2=O)c2ccccc21 measurement_kind="growth inhibition by drug alone" reported_value=-0.131
compound="CC(C)[C@]12O[C@H]1[C@@H]1O[C@]13[C@]1(O[C@H]1C[C@H]1C4=C(CC[C@@]13C)C(=O)OC4)[C@@H]2O [Triptolide]" measurement_kind="growth inhibition by drug alone" reported_value=0.971
compound="N.N.[Cl][Pt][Cl] [Cisplatin]" measurement_kind="growth inhibition by drug alone" reported_value=-0.0428
compound="N[C@@H](Cc1ccc(N(CCCl)CCCl)cc1)C(=O)O [Melphalan]" measurement_kind="growth inhibition by drug alone" reported_value=0.00786
compound=CN(C)CCN(C)CCc1ccc(Cl)c(Cl)c1 measurement_kind="growth inhibition by drug alone" reported_value=-0.0395
compound=O=C(Oc1ccc([N+](=O)[O-])cc1)N1CCC(C(O)(c2ccc3c(c2)OCO3)c2ccc3c(c2)OCO3)CC1 measurement_kind="growth inhibition by drug alone" reported_value=0.0131
